# credit: ChEMBL document CHEMBL5352403

organism: Homo sapiens; experiment: Selectivity index, ratio of IC50 for inhibition of recombinant human MAO-A to IC50 for inhibition of recombinant human MAO-B
reported_property: Ratio IC50

The cases that follow already have their Ratio IC50 on record.
sample_smiles: O=C(c1ccc([N+](=O)[O-])cc1)N1CCN(C(c2ccccc2)c2ccccc2)CC1
result: 0.13
//
sample_smiles: O=C(c1ccccc1)N1CCN(c2ccccc2)CC1
result: > 122
//
sample_smiles: Cc1cc(S(=O)(=O)N2CCN(C(c3ccccc3)c3ccccc3)CC2)c(C)cc1Cl
result: 0.07

Field: next molecule
Looking up c1ccc(C(c2ccccc2)N2CCN(c3c4ccccc4cc4ccccc34)CC2)cc1 , I see its Ratio IC50 listed as > 150

* * *

target: Amine oxidase [flavin-containing] B (Homo sapiens); test: Inhibition of recombinant human MAO-B using kynuramine as substrate incubated for 30 mins by spectrophotometric assay
Sequence (P27338 whole entry): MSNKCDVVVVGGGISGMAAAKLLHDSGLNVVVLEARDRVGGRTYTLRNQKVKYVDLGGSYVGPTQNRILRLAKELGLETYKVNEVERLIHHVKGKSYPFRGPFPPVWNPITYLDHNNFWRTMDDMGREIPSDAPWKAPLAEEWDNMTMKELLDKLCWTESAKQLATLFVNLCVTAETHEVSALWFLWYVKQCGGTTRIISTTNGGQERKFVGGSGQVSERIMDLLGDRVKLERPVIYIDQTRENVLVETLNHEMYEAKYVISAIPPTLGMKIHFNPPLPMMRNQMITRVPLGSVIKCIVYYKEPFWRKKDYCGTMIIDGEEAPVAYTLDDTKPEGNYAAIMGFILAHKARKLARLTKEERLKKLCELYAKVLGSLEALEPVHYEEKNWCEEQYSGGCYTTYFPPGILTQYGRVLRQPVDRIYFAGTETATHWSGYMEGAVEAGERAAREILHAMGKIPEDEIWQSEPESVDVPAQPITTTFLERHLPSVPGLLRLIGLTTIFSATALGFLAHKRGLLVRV
The entries below come with measured pIC50 values attached.
To interpret pIC50, take it as minus log10 of a concentration measured in moles per litre.

Below, each entry is followed by its recorded pIC50 result.
sample_smiles: C#CCN(C)c1ccc(/C=C/c2cnc(C)c3c2COC(C)(C)O3)cc1
quantitative_result: 8.00

sample_smiles: Cc1ncc(/C=C/c2ccc(O)cc2)c2c1OC(C)(C)OC2
quantitative_result: 8.00

The measured pIC50 that Cc1c(/N=C/c2ccc(O)cc2)c(=O)n(-c2ccccc2)n1C showed for Amine oxidase [flavin-containing] B (Homo sapiens) is 8.00

The molecule Cc1ncc(/C=C/c2ccc(N3CCN(C)CC3)cc2)c2c1OC(C)(C)OC2 , when measured on Amine oxidase [flavin-containing] B (Homo sapiens), yielded pIC50 of 7.70

* * *

molecular target: Amine oxidase [flavin-containing] A (Homo sapiens); assay: Inhibition of recombinant human MAO-A using p-tyramine as substrate incubated for 15 mins by Amplex Red reagent and horseradish peroxidase based fluorometric analysis
Sequence (P21397 whole entry): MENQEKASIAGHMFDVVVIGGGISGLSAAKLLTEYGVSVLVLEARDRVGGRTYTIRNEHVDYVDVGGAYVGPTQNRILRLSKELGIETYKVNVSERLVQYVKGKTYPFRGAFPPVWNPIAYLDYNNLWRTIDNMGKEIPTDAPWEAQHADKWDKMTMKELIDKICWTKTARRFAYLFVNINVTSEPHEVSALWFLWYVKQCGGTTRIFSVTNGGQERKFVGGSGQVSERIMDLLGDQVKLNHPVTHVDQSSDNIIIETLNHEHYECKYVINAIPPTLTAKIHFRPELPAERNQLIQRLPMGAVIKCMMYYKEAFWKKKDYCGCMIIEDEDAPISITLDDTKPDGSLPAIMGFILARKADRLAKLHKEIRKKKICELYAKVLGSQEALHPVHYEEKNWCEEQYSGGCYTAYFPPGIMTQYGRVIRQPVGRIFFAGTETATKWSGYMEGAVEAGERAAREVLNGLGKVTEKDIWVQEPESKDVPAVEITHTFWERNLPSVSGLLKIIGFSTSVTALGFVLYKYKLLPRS
reported_property: IC50 (µM)
Value expressed in µM; do not type the unit.

IC50 for O=c1oc2ccc(Cl)cc2c(O)c1-c1ccccc1O is 55.5

* * *

biological target: Amine oxidase [flavin-containing] B (Homo sapiens); experiment: Inhibition of recombinant human MAO-B using kynuramine as substrate incubated for 20 mins by spectramax fluorescence microplate reader analysis
reported_property: pIC50
FYI, pIC50 means -log10 of a concentration in mol per litre.

sample_smiles: O=C(NNc1nc2ccccc2nc1Cc1ccccc1)c1ccc(O)cc1
target_of_assay: Amine oxidase [flavin-containing] B (Homo sapiens)
pIC50: 7.77

Switching to the query record.
// compound COc1ccc2oc(/C=C/c3ccc(Cl)cc3)cc(=O)c2c1 , assay Amine oxidase [flavin-containing] B (Homo sapiens), pIC50 value: 7.77

* * *

target: Amine oxidase [flavin-containing] B (Homo sapiens); test: Inhibition of recombinant human MAO-B using kynuramine as substrate assessed as inhibition constant incubated for 20 mins by spectrophotometric assay
reported_property: pKi
Scale for pKi: -log10 of concentration given in mol/L; no unit attached.

# compound CC1=NN(C(=O)CN2CCNCC2)C(c2cc(Br)cc(Br)c2O)C1 (stereo unspecified) ; its pKi = 6.55

* * *

Entries and their pIC50
target: Amine oxidase [flavin-containing] B (Homo sapiens); test: Inhibition of recombinant human MAO-B using p-tyramine as substrate incubated for 60 mins by Amplex Red reagent and horseradish peroxidase based fluorescence microplate reader analysis
Scale explanation: pIC50 corresponds to minus log10 of a concentration expressed in moles per litre.

sample_smiles: COc1ccc(C(=O)/C=C/c2ccc(N(C)C)cc2)cc1
pIC50: 7.28

Consider the additional compound presented here.
Record CCOc1ccccc1N1CCN(c2ccc(-c3nc4cc(C)ccc4[nH]3)cc2)CC1 , field pIC50: 7.28
